selectivity ratio values, listed per item
experiment: in vitro; settings: monkey, Vero cells
Description: Selectivity index, ratio of CC50 for African green monkey Vero cells to EC50 for Leishmania infantum MHOM/BR/1972/BH046 amastigotes
Please respond with just the number, no unit label.

The following molecules have reported results that may help.
# Mol, selectivity ratio
measured = [
    ("O=C(/C=C/c1ccc([N+](=O)[O-])o1)c1ccc(I)cc1", 3.6),
    ("O=C(/C=C/c1ccc([N+](=O)[O-])o1)c1ccc(N2CCCCC2)cc1", 55),
    ("Cc1ccccc1C(=O)/C=C/c1ccc([N+](=O)[O-])o1", 1),
]

# selectivity ratio of `O=C(/C=C/c1ccc([N+](=O)[O-])o1)c1ccc(Br)cc1` = 3.4

# selectivity ratio of `COc1ccc(/C=C/C(=O)c2cccc(I)c2)cc1` = 2

# selectivity ratio of `O=C(/C=C/c1ccc([N+](=O)[O-])o1)c1ccc(-c2ccccc2)cc1` = 4.7

# selectivity ratio of `O=C(/C=C/c1ccc([N+](=O)[O-])o1)c1ccc(-n2ccnc2)cc1` = 8.1

# selectivity ratio of `CSc1ccc(C(=O)/C=C/c2ccc([N+](=O)[O-])o2)cc1` = 4.3

# selectivity ratio of `O=C(/C=C/c1ccc([N+](=O)[O-])s1)c1ccc(-n2ccnc2)cc1` = 1.3

---

experiment: in vitro; conditions: human, THP-1 cells
Description: Selectivity index, ratio of CC50 for human THP1 cells to EC50 for Leishmania infantum MHOM/BR/1972/BH046 amastigotes
Readout label: selectivity ratio

The following molecules have reported results that may help.
# Mol, selectivity ratio
rows = [
    ("CSc1ccc(C(=O)/C=C/c2ccco2)cc1", "> 1.09"),
    ("O=C(/C=C/c1ccc([N+](=O)[O-])o1)c1ccc(-c2ccccc2)cc1", 2.35),
    ("O=C(/C=C/c1ccc([N+](=O)[O-])o1)c1ccc(Br)cc1", 0.46),
    ("O=C(/C=C/c1ccco1)c1ccc(N2CCCCC2)cc1", "> 50"),
    ("O=C(/C=C/c1ccc([N+](=O)[O-])o1)c1ccc(N2CCCC2)cc1", "> 4.26"),
]

Okay, now this molecule:
# selectivity ratio of `O=C(/C=C/c1ccc([N+](=O)[O-])o1)c1ccc(-n2ccnc2)cc1` = 1.79

---

CC50 at 72 h values, listed per item
assay: Cytotoxicity against African green monkey Vero cells measured after 72 hrs by resazurin assay; assay type: cell-based; conditions: chlorocebus sabaeus, Vero cells

The following compounds have reported results that may help.
# Mol, CC50 at 72 h
measured = [
    ("CSc1ccc(C(=O)/C=C/c2ccc([N+](=O)[O-])s2)cc1", "> 100 µM"),
    ("Cc1ccccc1C(=O)/C=C/c1ccc([N+](=O)[O-])o1", "41.3 µM"),
    ("CCCCc1ccc(C(=O)/C=C/c2ccc([N+](=O)[O-])s2)cc1", "81.3 µM"),
]

# CC50 at 72 h of `O=C(/C=C/c1ccc([N+](=O)[O-])o1)c1ccc(-n2ccnc2)cc1` = > 100 µM

# CC50 at 72 h of `O=C(/C=C/c1ccc([N+](=O)[O-])s1)c1ccc(-n2ccnc2)cc1` = 42.7 µM

# CC50 at 72 h of `CC(C)(C)c1ccc(C(=O)/C=C/c2ccc([N+](=O)[O-])o2)cc1` = > 100 µM

# CC50 at 72 h of `O=C(/C=C/c1ccc([N+](=O)[O-])o1)c1ccc(N2CCOCC2)cc1` = > 100 µM

# CC50 at 72 h of `Cc1cccc(C(=O)/C=C/c2ccc([N+](=O)[O-])o2)c1` = 55.1 µM

# CC50 at 72 h of `COc1ccc(/C=C/C(=O)c2cccc(Br)c2)cc1` = > 100 µM

---

selectivity ratio values, listed per item
test: in vitro; conditions: human, THP-1 cells

# Mol, selectivity ratio
rows = [
    ("O=C(/C=C/c1ccc([N+](=O)[O-])o1)c1ccc(N2CCCCC2)cc1", "> 7.91"),
]

# selectivity ratio of `CSc1ccc(C(=O)/C=C/c2ccc([N+](=O)[O-])o2)cc1` = 1.4 to 1.41

# selectivity ratio of `Cc1ccccc1C(=O)/C=C/c1ccc([N+](=O)[O-])o1` = 0.74

# selectivity ratio of `COc1ccc(/C=C/C(=O)c2cccc(Br)c2)cc1` = > 50

# selectivity ratio of `Cc1cccc(C(=O)/C=C/c2ccc([N+](=O)[O-])o2)c1` = > 50

# selectivity ratio of `CC(C)(C)c1ccc(C(=O)/C=C/c2ccc([N+](=O)[O-])s2)cc1` = 0.2 to 0.27

---

assay: Cytotoxicity against human THP1 cells measured after 72 hrs by resazurin assay; type: cell-based, THP-1; settings: THP-1 cells
CC50 at 72 h values, listed per item
Just the number in µM, nothing appended.

The following compounds have reported results that may help.
# Mol, Units label, CC50 at 72 h
measured = [
    ("O=C(/C=C/c1ccc([N+](=O)[O-])o1)c1ccc(N2CCOCC2)cc1", "µM", 49),
    ("CCCCc1ccc(C(=O)/C=C/c2ccc([N+](=O)[O-])o2)cc1", "µM", 48.7),
    ("O=C(/C=C/c1ccc([N+](=O)[O-])s1)c1ccc(-n2ccnc2)cc1", "µM", 23.4),
]

# CC50 at 72 h of `Cc1ccccc1C(=O)/C=C/c1ccc([N+](=O)[O-])o1` = 27.9

# CC50 at 72 h of `O=C(/C=C/c1ccc([N+](=O)[O-])o1)c1ccc(Br)cc1` = 13.4

# CC50 at 72 h of `O=C(/C=C/c1ccc([N+](=O)[O-])o1)c1ccc(I)cc1` = 49.5

# CC50 at 72 h of `CSc1ccc(C(=O)/C=C/c2ccc([N+](=O)[O-])s2)cc1` = 8.56

# CC50 at 72 h of `CSc1ccc(C(=O)/C=C/c2ccc([N+](=O)[O-])o2)cc1` = 13.1

# CC50 at 72 h of `O=C(/C=C/c1ccc([N+](=O)[O-])o1)c1ccc(-n2ccnc2)cc1` = 22.2

# CC50 at 72 h of `O=C(/C=C/c1ccc([N+](=O)[O-])s1)c1ccc(N2CCOCC2)cc1` = 39.9

---

test: in vitro; details: human, THP-1 cells
Readout label: selectivity ratio

# selectivity ratio of `O=C(/C=C/c1ccc([N+](=O)[O-])o1)c1ccc(N2CCNCC2)cc1` = > 5.2

---

tested on: Leishmania infantum; test: microbe, parasite or virus in culture; assay type: functional; conditions: MHOM/BR/1972/BH046, 72 h
Description: Anti-leishmanial activity against Leishmania infantum MHOM/BR/1972/BH046 amastigotes infected in cells measured after 3 days by Draq5 staining based assay
Readout label: EC50 (µM)
Just the number in µM, nothing appended.

# Mol, Target entity, EC50 (µM)
rows = [
    ("O=C(/C=C/c1ccc([N+](=O)[O-])o1)c1ccc(-c2ccccc2)cc1", "Leishmania infantum", 21.4),
    ("O=C(/C=C/c1ccc(Cl)s1)c1ccc(-n2ccnc2)cc1", "Leishmania infantum", 21.4),
    ("O=C(/C=C/c1ccc([N+](=O)[O-])o1)c1ccc(Br)cc1", "Leishmania infantum", 29.1),
]

# EC50 of `C[C@@H]1[C@H](O)[C@@H](C)/C=C/C=C/C=C/C=C/C=C/C=C/C=C/[C@H](O[C@@H]2O[C@H](C)[C@@H](O)[C@H](N)[C@@H]2O)C[C@@H]2O[C@](O)(C[C@@H](O)C[C@@H](O)[C@H](O)CC[C@@H](O)C[C@@H](O)CC(=O)O[C@H]1C)C[C@H](O)[C@H]2C(=O)O` = 1.92

# EC50 of `O=C(/C=C/c1ccc([N+](=O)[O-])o1)c1ccc(N2CCCC2)cc1` = 11.8

# EC50 of `O=C(/C=C/c1ccc([N+](=O)[O-])o1)c1ccc(-n2ccnc2)cc1` = 12.4

---

assay: in vitro; settings: monkey, Vero cells
Readout label: selectivity ratio

# selectivity ratio of `O=C(/C=C/c1ccc([N+](=O)[O-])o1)c1cccc(Br)c1` = 2.8 to 2.9

# selectivity ratio of `CC(C)(C)c1ccc(C(=O)/C=C/c2ccc([N+](=O)[O-])s2)cc1` = 3 to 3.2

# selectivity ratio of `O=C(/C=C/c1ccc([N+](=O)[O-])o1)c1ccc(C2CCCCC2)cc1` = 9.1 to 10

# selectivity ratio of `O=C(/C=C/c1ccc([N+](=O)[O-])o1)c1ccc(N2CCNCC2)cc1` = 10 to 10.4

---

test: Cytotoxicity against African green monkey Vero cells measured after 72 hrs by resazurin assay; format: cell-based; conditions: chlorocebus sabaeus, Vero cells
Readout label: CC50 at 72 h

The following compounds have reported results that may help.
# Mol, Readout value
data = [
    ("O=C(/C=C/c1ccc([N+](=O)[O-])o1)c1ccc(-c2ccccc2)cc1", "> 100 µM"),
    ("CCCCc1ccc(C(=O)/C=C/c2ccc([N+](=O)[O-])o2)cc1", "75.7 µM"),
]

Okay, now this compound:
# CC50 at 72 h of `O=C(/C=C/c1ccc([N+](=O)[O-])o1)c1ccc(Br)cc1` = > 100 µM
